System: PPARg:RXRa (NR concentration 180 nM, RXRa partner concentration 90 nM)
Experimental protocol: PBM binding z-score (relative to random genomic background probes); higher = stronger binding; sequences stand for … in GC…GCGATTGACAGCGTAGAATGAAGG
I would appreciate it if you labelled entries yes (1) when PBM binding z-score is 1 or higher, otherwise no (0).

The following sequences have reported results that may help.
ATCTCTAGGTAAAAGTCCAGTGAATCCCGAGGAT
yes (1)
TAGCCTAGGTCATGCGGGCCAGAATAGTGTCGGC
yes (1)
CCTACTGGGCCATTTAGAGGTCATTGATCATATG
yes (1)
CCTACTGGGCCAAACGTCATTGATTCCAATGCTC
yes (1)
ATATGTAGGTTATCGGGTCATTGAGTTTGCGCAT
yes (1)

[in] Determine whether measured PBM binding z-score meets or exceeds 1 for TAACCAAGGTGAAGGTCGTTGATCCCTCTGTAGA
[out] yes (1)

meta.source: the supplement of paper PMC6555819
